Overview of recorded EC50 for various compounds
- Tested on: CFTR-mediated chloride transport in human intestinal epithelial enteroid cells (Homo sapiens, UniProt P13569)
- Sequence (P13569 with tags, fused parts or gaps DEL508-508): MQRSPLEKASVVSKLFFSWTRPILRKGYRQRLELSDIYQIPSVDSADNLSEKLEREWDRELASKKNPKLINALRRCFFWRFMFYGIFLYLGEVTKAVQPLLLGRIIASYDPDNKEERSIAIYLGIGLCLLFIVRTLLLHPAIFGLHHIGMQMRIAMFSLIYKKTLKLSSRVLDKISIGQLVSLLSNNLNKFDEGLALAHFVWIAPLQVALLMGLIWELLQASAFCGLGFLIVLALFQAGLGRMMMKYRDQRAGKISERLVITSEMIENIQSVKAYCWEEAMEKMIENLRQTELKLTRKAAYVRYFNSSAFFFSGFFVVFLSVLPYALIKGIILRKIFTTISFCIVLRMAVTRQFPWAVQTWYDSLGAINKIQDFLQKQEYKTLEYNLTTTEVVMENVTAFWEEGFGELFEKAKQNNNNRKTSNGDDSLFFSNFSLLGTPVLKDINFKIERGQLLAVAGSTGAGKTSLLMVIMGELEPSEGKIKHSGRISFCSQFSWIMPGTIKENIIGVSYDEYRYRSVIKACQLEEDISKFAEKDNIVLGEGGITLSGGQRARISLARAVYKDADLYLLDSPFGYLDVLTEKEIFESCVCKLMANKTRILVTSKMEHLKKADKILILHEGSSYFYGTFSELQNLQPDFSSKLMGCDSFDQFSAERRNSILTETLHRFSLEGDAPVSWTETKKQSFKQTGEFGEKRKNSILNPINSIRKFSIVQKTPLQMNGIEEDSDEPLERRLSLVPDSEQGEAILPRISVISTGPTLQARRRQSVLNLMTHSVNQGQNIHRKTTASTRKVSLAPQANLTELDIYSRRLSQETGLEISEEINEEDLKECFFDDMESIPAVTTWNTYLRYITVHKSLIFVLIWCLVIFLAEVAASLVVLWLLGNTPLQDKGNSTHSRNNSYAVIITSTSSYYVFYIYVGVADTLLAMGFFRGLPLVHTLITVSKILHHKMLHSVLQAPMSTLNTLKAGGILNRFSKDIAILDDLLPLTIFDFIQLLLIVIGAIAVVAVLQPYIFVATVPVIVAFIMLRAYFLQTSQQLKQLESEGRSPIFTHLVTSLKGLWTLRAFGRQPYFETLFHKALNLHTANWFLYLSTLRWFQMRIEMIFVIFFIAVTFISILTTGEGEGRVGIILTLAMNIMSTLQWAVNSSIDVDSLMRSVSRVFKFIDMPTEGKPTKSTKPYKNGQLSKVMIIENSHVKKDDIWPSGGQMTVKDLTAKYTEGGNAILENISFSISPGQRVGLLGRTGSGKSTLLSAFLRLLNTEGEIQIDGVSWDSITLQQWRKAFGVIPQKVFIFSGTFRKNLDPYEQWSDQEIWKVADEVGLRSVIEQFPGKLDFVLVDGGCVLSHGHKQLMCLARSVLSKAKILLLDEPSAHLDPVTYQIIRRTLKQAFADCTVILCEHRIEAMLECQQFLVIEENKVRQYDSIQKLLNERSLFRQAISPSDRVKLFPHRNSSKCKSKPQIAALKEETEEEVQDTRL
- Assay name: Membrane potential dye, Enteroid Assay A
- Assay type: cell-based
- Study conditions: enteroid cells incubated with test compound 18-24 hours; acute 10 μM forskolin and 300 nM N-[2,4-bis(1,1-dimethylethyl)-5-hydroxyphenyl]-1,4-dihydro-4-oxoquinoline-3-carboxamide; read-out: Ent. A EC50

Below are worked cases with known answers.
Compound	EC50
Cc1cccc(C)c1-c1cc2nc(n1)NS(=O)(=O)c1cccc(c1)C(=O)N1CCN(Cc3ccn[nH]3)CC(C1)O2 (centres unmarked)	3 to 30 µM
Cc1cccc(C)c1-c1cc2nc(n1)NS(=O)(=O)c1cccc(c1)C(=O)N1CC(C)(C)OCC1CO2 (centres unmarked)	1 to 3 µM
Cc1cccc(C)c1-c1cc2nc(n1)NS(=O)(=O)c1cccc(c1)C(=O)N1Cc3cnccc3C(C1)O2 (centres unmarked)	3 to 30 µM
Cc1cccc(C)c1-c1cc2nc(n1)NS(=O)(=O)c1cccc(c1)C(=O)N1CCN(CCC3(C(F)(F)F)CC3)C(CO2)C1 (centres unmarked)	< 1 µM
Cc1cccc(C)c1-c1cc2nc(n1)NS(=O)(=O)c1cccc(c1)C(=O)N1CCc3ccccc3C(C1)O2 (centres unmarked)	< 1 µM
Cc1cccc(C)c1-c1cc2nc(n1)NS(=O)(=O)c1cccc(c1)C(=O)N1CCOC[C@@H]1CO2	3 to 30 µM
Cc1cccc(C)c1-c1cc2nc(n1)NS(=O)(=O)c1cccc(c1)C(=O)N1CC(CC(C(=O)NCCC(C)(C)C)C1)O2 (centres unmarked)	< 1 µM
Cc1cccc(C)c1-c1cc2nc(n1)NS(=O)(=O)c1cccc(c1)C(=O)N1CCN(C)CC(C1)O2 (centres unmarked)	3 to 30 µM
Cc1cccc(C)c1-c1cc2nc(n1)NS(=O)(=O)c1cccc(c1)C(=O)N1CCN(CCCC(C)(C)C)CC1CO2 (centres unmarked)	< 1 µM
Cc1cccc(C)c1-c1cc2nc(n1)NS(=O)(=O)c1cccc(c1)C(=O)N1Cc3cccnc3C(C1)O2 (single isomer, unassigned)	3 to 30 µM

query: Need EC50 of Cc1cccc(C)c1-c1cc2nc(n1)NS(=O)(=O)c1cccc(c1)C(=O)N1CCN(CCC3(C(F)(F)F)CC3)CC1CO2 (centres unmarked) , thanks.
result: < 1 µM

query: Need EC50 of Cc1cccc(C)c1-c1cc2nc(n1)NS(=O)(=O)c1cccc(c1)C(=O)N1CCN(Cc3cccnc3)C[C@@H]1CO2 , thanks.
result: 3 to 30 µM

query: Need EC50 of Cc1cccc(C)c1-c1cc2nc(n1)NS(=O)(=O)c1cccc(c1)C(=O)N1CCN(C)C[C@@H]1CO2 , thanks.
result: 3 to 30 µM

query: Need EC50 of Cc1cccc(C)c1-c1cc2nc(n1)NS(=O)(=O)c1cccc(c1)C(=O)N1CCN(CCC(C)C)CC(C1)O2 (centres unmarked) , thanks.
result: < 1 µM
